# Tested on: rabbit skeletal myofibrils (approximately 90% fast fibers)
# experiment-summary: Activation of fast skeletal myofibrils (PUMA coupled-enzyme ATPase assay at pCa25)
# Format: biochemical
# study-conditions: concentration at which the compound increased the enzymatic activity by 40%; calcium at pCa25; PM12 buffer pH 6.8
quantity: Mean AC1.4

# example entries with known answers
CCOC(=O)c1cc2cnc(NCC3(c4ncccc4F)CCC3)nc2s1 = D (D=>20 uM)
O=C(O)CNC(=O)c1cnc(NCC2(c3ncccc3F)CCC2)nc1 = D (D=>20 uM)
CC(C)(Nc1ncc(-c2ncc(CNC(=O)[C@H]3CCCN3)s2)cn1)c1ncccc1F = D (D=>20 uM)
Fc1cccnc1[C@]1(CNc2ncccn2)C[C@@H](F)C1 = D (D=>20 uM)
Cc1nc(NC[C@]2(c3ncccc3F)C[C@H](F)C2)ncc1-c1ccc(C(N)=O)cc1 = D (D=>20 uM)
O=C(Nc1ccn[nH]1)c1cnc(NCC2(c3ncccc3F)CCC2)nc1 = C (C=10-20 uM)
Fc1cc2[nH]ncc2cc1-c1cnc(NC2(c3ncccc3F)CCC2)nc1 = B (B=1-10 uM)
CC(C)(CNc1ncc(-c2nccc(C(N)=O)n2)cn1)c1ncccc1F = C (C=10-20 uM)

Ask | # lookup: Mean AC1.4 of CC(C)(Nc1ncc(-c2cn3cccc(C(N)=O)c3n2)cn1)c1ncccc1Cl
Reply | B (B=1-10 uM)

Ask | Consider the compound CC(C)(Nc1ncc(-c2ncc(CNC(=O)c3c[nH]c(O)n3)s2)cn1)c1ncccc1Cl and give its measured Mean AC1.4.
Reply | B (B=1-10 uM)

Ask | Need Mean AC1.4, item CC(C)(Nc1ncc(-c2cccc(C(N)=O)c2)cn1)c1ncccc1Cl
Reply | A (A=<1 uM)

Ask | Field request: Mean AC1.4 | item: CC(C)(Nc1ncc(-c2cn3cc(C(N)=O)sc3n2)cn1)c1ncccc1Cl
Reply | D (D=>20 uM)

Ask | Name the recorded Mean AC1.4 for NC(=O)c1cccc(-c2cnc(NCC3(c4ncccc4F)CCC3)nc2)c1 .
Reply | A (A=<1 uM)

Ask | Bench note: what Mean AC1.4 did COc1ccc(-c2cnc(NC[C@]3(c4ncccc4F)C[C@H](F)C3)nc2)nn1 show?
Reply | D (D=>20 uM)

Ask | What does the record list as Mean AC1.4 for CC(C)(CNc1ncc(-c2cccc(C(N)=O)c2)cn1)c1ccc(F)cc1 ?
Reply | A (A=<1 uM)

Ask | If you can, please state the reported Mean AC1.4 value of N#Cc1cc(-c2cnc(NC3(c4ccc(F)cc4)CCC3)nc2)ccn1 .
Reply | C (C=10-20 uM)

Ask | Which Mean AC1.4 value is on record for CC(C)(C)Nc1ncc(-c2cccc(C(N)=O)c2)cn1 ?
Reply | D (D=>20 uM)

Ask | So what's the measured Mean AC1.4 for this one? Nc1cnc(-c2cnc(NC[C@]3(c4ncccc4F)C[C@H](F)C3)nc2)cn1
Reply | B (B=1-10 uM)

Ask | What Mean AC1.4 value was documented for this compound, CNC(=O)c1ccc(O)c(-c2cnc(NCC3(c4ncccc4F)CCC3)nc2)c1 ?
Reply | B (B=1-10 uM)

Ask | Can you share its Mean AC1.4? I mean this compound: CC(C)(CNc1ncc(-c2cc(C(N)=O)ccc2F)cn1)c1ncccc1Cl
Reply | A (A=<1 uM)

Ask | What does the data say about its Mean AC1.4? Entry: CC(C)(Nc1ncc(-c2csc(C(N)=O)c2)cn1)c1ncccc1Cl
Reply | B (B=1-10 uM)
